- tested target: human PDE2A1 (Homo sapiens, UniProt O00408)
- Construct: GST; purchased BPS Bioscience (San Diego, Calif.) 60020; host or cells: insect cells
- Sequence (O00408 1-920 isoform O00408-2): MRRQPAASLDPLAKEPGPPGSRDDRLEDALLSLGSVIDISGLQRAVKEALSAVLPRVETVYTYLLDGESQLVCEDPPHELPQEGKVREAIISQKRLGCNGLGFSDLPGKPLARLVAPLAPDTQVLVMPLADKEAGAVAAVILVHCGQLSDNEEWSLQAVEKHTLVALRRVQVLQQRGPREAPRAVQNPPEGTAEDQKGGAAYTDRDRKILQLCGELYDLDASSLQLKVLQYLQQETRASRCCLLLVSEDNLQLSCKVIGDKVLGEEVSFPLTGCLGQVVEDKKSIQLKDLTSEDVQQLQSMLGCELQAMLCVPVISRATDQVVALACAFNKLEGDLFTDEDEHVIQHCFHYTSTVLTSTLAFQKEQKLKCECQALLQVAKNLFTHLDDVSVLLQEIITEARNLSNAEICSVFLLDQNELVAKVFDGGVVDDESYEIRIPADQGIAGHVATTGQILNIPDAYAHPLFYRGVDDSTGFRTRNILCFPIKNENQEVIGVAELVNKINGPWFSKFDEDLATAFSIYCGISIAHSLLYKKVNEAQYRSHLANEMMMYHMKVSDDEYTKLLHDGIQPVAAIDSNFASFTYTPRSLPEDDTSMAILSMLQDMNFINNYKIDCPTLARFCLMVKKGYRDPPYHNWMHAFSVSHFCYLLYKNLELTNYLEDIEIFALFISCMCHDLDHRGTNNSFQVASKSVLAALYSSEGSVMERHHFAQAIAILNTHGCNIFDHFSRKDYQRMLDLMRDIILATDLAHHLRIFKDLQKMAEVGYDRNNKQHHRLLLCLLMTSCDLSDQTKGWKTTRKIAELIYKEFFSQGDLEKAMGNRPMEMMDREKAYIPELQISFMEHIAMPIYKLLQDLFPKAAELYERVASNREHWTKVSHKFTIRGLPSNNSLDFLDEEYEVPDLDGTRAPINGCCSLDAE
- method summary: IMAP FP PDE assay, human PDE2A1
- Assay type: biochemical
- condition details: Lab B; read-out: Human PDE2 Ki (nM) Lab B
The entries below are paired with their reported Ki.
Dear colleague, please return just the value in nM, with no unit written.

Some solved entries appear below for comparison.
Recorded result, Cc1nc2c(c(OCC(F)(F)F)nn2C(C)c2ccc(C(F)(F)F)cc2)c(=O)[nH]1 (single isomer, unassigned) [Example 287] , Ki: 375

Recorded result, Cc1nc2c(c(CO)nn2C(C)c2ccc(C(F)F)cc2)c(=O)[nH]1 (single isomer, unassigned) [Example 111] , Ki: 3.2

Recorded result, Cc1nc2c(c(CC(F)(F)F)nn2C(c2ccc(C(F)(F)F)cc2)C(C)(C)C)c(=O)[nH]1 (single isomer, unassigned) [Example 57] , Ki: 62

Recorded result, Cc1nc2c(c(C(F)F)nn2C(C)c2ccc(C(F)(F)C(F)(F)F)cc2)c(=O)[nH]1 (stereo not shown) [Example 165] , Ki: 6.3

Recorded result, Cc1nc2c(c(CO)nn2C(C)c2ccc(C(F)(F)F)s2)c(=O)[nH]1 (single isomer, unassigned) [Example 156] , Ki: 8.5

Next:
Recorded result, Cc1nc2c(c(CO)nn2C(C)c2ccc(Cl)s2)c(=O)[nH]1 (single isomer, unassigned) [Example 154] , Ki: 18

Recorded result, Cc1nc2c(c(CC(F)(F)F)nn2C(C)c2ccc(C(F)(F)F)cc2)c(=O)[nH]1 (single isomer, unassigned) [Example 64] , Ki: 274
